Origin of measurements: PubChem BioAssay AID2060618

# Tested on: 454973-116-R2-J3-PDC spheroids, percent test/control viability
# experimental-protocol: Anticancer human tumor 454973-116-R2-J3-PDC patient-derived pancreatic carcinoma cell line growth inhibition [CLK]; active = viability on the fitted dose curve at most 10% of control; inactive = the rest
# particulars: second compound 0.1 µM; first compound 1 µM; spheroids with HUVEC and MSC
Outcome codes: YES for active, NO for inactive

[[record]]
compound = "COc1cccc2c1C(=O)c1c(O)c3c(c(O)c1C2=O)CC(O)(C(=O)CO)CC3OC1CC(N)C(O)C(C)O1 (stereo not given) + CN1CCN(c2cc(C(=O)Nc3cc4cc(-c5cnn(C)c5)ccc4cn3)ccn2)CC1"
discrete_label = "YES"

[[record]]
compound = "C=C(F)C(=O)N1CCN(c2nc(OCC3CCCN3C)nc3c2CCN(c2cccc4cccc(Cl)c24)C3)CC1CC#N (stereo not given) + CNC(=O)c1ccc(Nc2nc(OC3CCCC3)c3c(-c4ccc5nc(C)oc5c4)c[nH]c3n2)c(OC)c1"
discrete_label = "NO"

[[record]]
compound = "CC(CO)NC(=O)c1cc(-c2ccc(Cl)cc2)nn(-c2cnn(C)c2)c1=O (stereo not given) + CN1CCN(c2cc(C(=O)Nc3cc4cc(-c5cnn(C)c5)ccc4cn3)ccn2)CC1"
discrete_label = "NO"

[[record]]
compound = "CCN1CCN(Cc2ccc(Nc3ncc(F)c(-c4cc(F)c5nc(C)n(C(C)C)c5c4)n3)nc2)CC1 + CN1CCN(c2cc(C(=O)Nc3cc4cc(-c5cnn(C)c5)ccc4cn3)ccn2)CC1"
discrete_label = "NO"

[[record]]
compound = "COC1C=CCC(C)C(C)S(=O)(=O)NC(=O)c2ccc3c(c2)N(CC2CCC21)CC1(CCCc2cc(Cl)ccc21)CO3 (stereo not given) + CNC(=O)c1ccc(Nc2nc(OC3CCCC3)c3c(-c4ccc5nc(C)oc5c4)c[nH]c3n2)c(OC)c1"
discrete_label = "NO"


---

# Test system: 454973-116-R2-J3-PDC spheroids, percent test/control viability
# experimental-protocol: Anticancer human tumor 454973-116-R2-J3-PDC cell line growth inhibition [CLK];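 also: spheroids exposed to compounds for 7 days before readout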
# particulars: second compound 3.16 µM; first compound 0.3 µM; stronger effect = lower value; spheroids with HUVEC and MSC
// reported viability, T/C per item
parameter: viability, T/C (%)

[[record]]
compound = "C=CC(=O)Nc1cc(Nc2nccc(-c3cn(C)c4ccccc34)n2)c(OC)cc1N(C)CCN(C)C + CN1CCN(c2cc(C(=O)Nc3cc4cc(-c5cnn(C)c5)ccc4cn3)ccn2)CC1"
measurement = 0.35

[[record]]
compound = "NC(=O)C(=Cn1cnc(-c2cc(C(F)(F)F)cc(C(F)(F)F)c2)n1)c1cncnc1 + CNC(=O)c1ccc(Nc2nc(OC3CCCC3)c3c(-c4ccc5nc(C)oc5c4)c[nH]c3n2)c(OC)c1"
measurement = 19.3

[[record]]
compound = "CC(C)CC(NC(=O)C(Cc1ccccc1)NC(=O)c1cnccn1)B(O)O (stereo unspecified) + CN1CCN(c2cc(C(=O)Nc3cc4cc(-c5cnn(C)c5)ccc4cn3)ccn2)CC1"
measurement = 0.79

[[record]]
compound = "CC(C)CC(NC(=O)C(Cc1ccccc1)NC(=O)c1cnccn1)B(O)O (stereo unspecified) + CNC(=O)c1ccc(Nc2nc(OC3CCCC3)c3c(-c4ccc5nc(C)oc5c4)c[nH]c3n2)c(OC)c1"
measurement = 0.23

[[record]]
compound = "C=CC(=O)Nc1cc(Nc2nccc(-c3cn(C)c4ccccc34)n2)c(OC)cc1N(C)CCN(C)C + CNC(=O)c1ccc(Nc2nc(OC3CCCC3)c3c(-c4ccc5nc(C)oc5c4)c[nH]c3n2)c(OC)c1"
measurement = 22.1

[[record]]
compound = "NC(=O)C(=Cn1cnc(-c2cc(C(F)(F)F)cc(C(F)(F)F)c2)n1)c1cncnc1 + CN1CCN(c2cc(C(=O)Nc3cc4cc(-c5cnn(C)c5)ccc4cn3)ccn2)CC1"
measurement = 0.13

